Reference source for all entries: patent US20240343803A1

Entries annotated with measured EC50
Molecular target: T1, cynomolgus monkey PVRIG (Novoprotein, Cat NO. C09B) (cynomolgus monkey, UniProt A0A2K5WVV8 41-171)
T1 construct: Bought reagent; also called cynomolgus monkey PVRIG protein
T1 sequence: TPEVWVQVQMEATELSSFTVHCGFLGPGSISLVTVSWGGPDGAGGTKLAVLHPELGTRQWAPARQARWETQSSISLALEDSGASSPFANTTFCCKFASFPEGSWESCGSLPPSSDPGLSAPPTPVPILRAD
Assay: ELISA, coated cynomolgus monkey PVRIG
Expressed in nM, but write only the number.

Notebook: PVRIG-A105 (Fc fusion, Alpaca VHH joined to human IgG1 Fc (VHH-hinge-CH2-CH3); not shown: human IgG1 hinge-CH2-CH3) EVQLVESGGGLVQAGGSLRLSCAASGRTFDRHTMTWFRQAPGKEREFVATASRIPGDTYYSHSVKGRFTISRDNAKNTVYLQLNNLKPEDTAVYYCAATSAYCSEVDCYEKGSWYDNWGQGIQVTVSS , EC50 read as 0.0192

EC50 reading for PVRIG-A118 (Fc fusion, Alpaca VHH joined to human IgG1 Fc (VHH-hinge-CH2-CH3); not shown: human IgG1 hinge-CH2-CH3) QVQLVESGGGLVQAGGSLRLSCAASETYFDLYVMGWYRQAPGKDRELVATITYTGSIKIVDSVKDRFTISRGDAKNTVSLQMSSLKPEDTAVYFCNADPSGLGRKVYWGQGTQVTVSS : 0.0341

EC50 in this record for PVRIG-A35 (Fc fusion, Alpaca VHH joined to human IgG1 Fc (VHH-hinge-CH2-CH3); not shown: human IgG1 hinge-CH2-CH3) EVQVVESGGGLVQSGGSLRLSCAASGRTRSMYVMGWFRQAPGKEREFVGRIKWSGDTTYTSYADFVKGRFTLYGNQARNTVYLQMNSLKPEDTAVYYCNGRSRFNVINAWGTGTLVTVAS : 0.0288

binder PVRIG-A11 (Fc fusion, Alpaca VHH joined to human IgG1 Fc (VHH-hinge-CH2-CH3); not shown: human IgG1 hinge-CH2-CH3) QLQLVESGGGLVQPGGSLRLSCAASGFTDDYYAIGWFRQAPGKEREGVSCISGSGGSTNYEDSVKGRFAISRDNAKNMVYLQMNDLKPEDTAVYYCAADPFWSAPCTGHNDRYFDVWGQGTLVTVSS , EC50 observed: 0.0289

The binder identified as PVRIG-A30 (Fc fusion, Alpaca VHH joined to human IgG1 Fc (VHH-hinge-CH2-CH3); not shown: human IgG1 hinge-CH2-CH3) QVQLVESGGGLVQPGGSLRLSCAASGRTDSMNVMGWFRRAPGKEREFVARIKWNGDTTYTAYADFLKGRFTLYGAVARNRVYLQMNSLQPEDTAVYYCAAGEVSGSSYSPDYGMHYWGKGTLVTVSS registered its EC50 at 0.093

Form: binder = PVRIG-A60 (Fc fusion, Alpaca VHH joined to human IgG1 Fc (VHH-hinge-CH2-CH3); not shown: human IgG1 hinge-CH2-CH3) QVQLVESGGGLVQSGGSLRLSCAASGRTRSMYVMGWFRQAPGKEREFVGRIKWSGDTTYTSYADFVKGRFTLYGNQARNTVYLQMNSLKPEDAAVYYCNLRRLDGVNYWGKGTLVTVSS ; EC50 = 0.0343

Lab note: PVRIG-A104 (Fc fusion, Alpaca VHH joined to human IgG1 Fc (VHH-hinge-CH2-CH3); not shown: human IgG1 hinge-CH2-CH3) EVQVVESGGGLVQAGGSLRLSCAASGRTRSMYVMGWFRQAPGKEREFVGRIKWSGDTTYTSYADFVKGRFTLYGNQARNTVYLQMNSLKPEDTAVYYCYRRSWTNTKLYWGKGIQVTVSS gave EC50 of 0.0353

Next item in the queue.
Given item PVRIG-A117 (Fc fusion, Alpaca VHH joined to human IgG1 Fc (VHH-hinge-CH2-CH3); not shown: human IgG1 hinge-CH2-CH3) EVQVVESGGGLVQAGGSLRLSCTASEHIYDLYIMGWYRQAPGKDRELVATITYTGSIYIADSVKDRFTISRGNAKNTVSLQMSGLKPEDTAVYYCNADPSGLGRKLYWGQGTQVTVSS , the value recorded as its EC50 is 0.0418
